# assay_name: Intrinsic clearance in rat liver microsomes at 100 uM by HPLC
# Type: ADME, Microsome
property_label: CLint scaled at 100 µM (mL/min/kg)
Reply with just the number (in mL/min/kg).

compound="CCCS(=O)(=O)Oc1ccc(Oc2ccc(S(=O)(=O)CC3CS3)cc2)cc1 (stereo not given)" output_unit=mL/min/kg value=111

Fill in the blank: the reported CLint scaled at 100 µM of CS(=O)(=O)Oc1ccc(Oc2ccc(S(=O)(=O)CC3CS3)cc2)cc1 (stereo not given) is ____. 56.5

Fill in the blank: the reported CLint scaled at 100 µM of O=S(=O)(CC1CS1)c1ccc(Oc2ccccc2)cc1 (stereo not given) is ____. 117

Fill in the blank: the reported CLint scaled at 100 µM of CC(C)CS(=O)(=O)Oc1ccc(Oc2ccc(S(=O)(=O)CC3CS3)cc2)cc1 (stereo not given) is ____. 86.5

Fill in the blank: the reported CLint scaled at 100 µM of CCS(=O)(=O)Oc1ccc(Oc2ccc(S(=O)(=O)CC3CS3)cc2)cc1 (stereo not given) is ____. 39

###

# measurement_target: Matrix metalloproteinase-9 (Homo sapiens, UniProt P14780)
# Sequence (P14780 whole entry, the tested form may be a part): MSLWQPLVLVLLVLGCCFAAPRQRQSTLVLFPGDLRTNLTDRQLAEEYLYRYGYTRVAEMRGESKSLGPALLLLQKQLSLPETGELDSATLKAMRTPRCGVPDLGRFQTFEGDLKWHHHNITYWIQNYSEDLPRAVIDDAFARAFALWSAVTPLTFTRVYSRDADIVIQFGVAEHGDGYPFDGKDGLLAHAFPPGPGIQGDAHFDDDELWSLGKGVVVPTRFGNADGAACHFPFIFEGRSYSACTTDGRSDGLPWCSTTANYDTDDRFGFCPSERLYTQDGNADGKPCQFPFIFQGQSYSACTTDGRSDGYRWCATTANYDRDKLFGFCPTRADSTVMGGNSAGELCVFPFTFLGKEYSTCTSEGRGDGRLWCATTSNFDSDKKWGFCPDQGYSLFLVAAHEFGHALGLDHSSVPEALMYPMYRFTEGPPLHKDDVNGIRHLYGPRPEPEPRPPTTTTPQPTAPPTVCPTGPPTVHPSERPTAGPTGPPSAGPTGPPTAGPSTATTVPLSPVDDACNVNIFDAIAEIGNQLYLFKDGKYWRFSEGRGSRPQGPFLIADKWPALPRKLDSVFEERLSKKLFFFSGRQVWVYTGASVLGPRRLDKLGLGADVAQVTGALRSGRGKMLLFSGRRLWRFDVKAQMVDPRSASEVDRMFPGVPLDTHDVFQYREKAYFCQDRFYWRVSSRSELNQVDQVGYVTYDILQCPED
# assay_name: Inhibition of human recombinant MMP9 catalytic domain assessed as dissociation rate constant by substrate hydrolysis based fluorescence spectrophotometry
Mark 1 for Activity under 2 ×10⁻³ /s, 0 if at or over.

# example entries with known answers
compound="CCCS(=O)(=O)Oc1ccc(S(=O)(=O)CC2CS2)cc1 (stereo unspecified)" category=1
compound="CCS(=O)(=O)Oc1ccc(S(=O)(=O)CC2CS2)cc1 (stereo unspecified)" category=1
compound="CC(C)CS(=O)(=O)Oc1ccc(S(=O)(=O)CC2CS2)cc1 (stereo unspecified)" category=1
compound="CS(=O)(=O)Oc1ccc(S(=O)(=O)CC2CS2)cc1 (stereo unspecified)" category=1
compound="O=S(=O)(CC1CS1)c1ccc(Oc2ccccc2)cc1 (stereo unspecified)" category=0

For CCS(=O)(=O)Oc1ccc(Oc2ccc(S(=O)(=O)CC3CS3)cc2)cc1 (stereo unspecified) , is the recorded Activity below the cut-off of 2 ×10⁻³ /s? 1

###

# measurement_target: Stromelysin-1 (Homo sapiens, UniProt P08254)
# Sequence (P08254 whole entry): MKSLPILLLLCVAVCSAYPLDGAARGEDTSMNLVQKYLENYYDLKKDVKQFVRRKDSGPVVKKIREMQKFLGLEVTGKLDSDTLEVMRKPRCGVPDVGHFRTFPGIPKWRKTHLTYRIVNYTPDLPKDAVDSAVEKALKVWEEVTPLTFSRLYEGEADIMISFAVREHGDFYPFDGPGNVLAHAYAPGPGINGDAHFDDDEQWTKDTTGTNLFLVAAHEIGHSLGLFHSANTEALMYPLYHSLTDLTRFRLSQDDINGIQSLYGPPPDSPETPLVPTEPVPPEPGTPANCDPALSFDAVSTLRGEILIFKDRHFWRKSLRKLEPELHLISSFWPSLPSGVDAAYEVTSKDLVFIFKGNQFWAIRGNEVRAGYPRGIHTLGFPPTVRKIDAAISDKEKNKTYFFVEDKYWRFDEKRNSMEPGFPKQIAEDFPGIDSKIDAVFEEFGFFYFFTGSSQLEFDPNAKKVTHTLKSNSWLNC
property_label: Ki (nM)
Reply with just the number (in nM).

Please provide the recorded Ki for CS(=O)(=O)Oc1ccc(Oc2ccc(S(=O)(=O)CC3CS3)cc2)cc1 (stereo unspecified) , tested on Stromelysin-1 (Homo sapiens, UniProt P08254). 600

###

# measurement_target: Matrix metalloproteinase-9 (Homo sapiens, UniProt P14780)
# assay_name: Inhibition of human recombinant MMP9 catalytic domain assessed as dissociation rate constant by substrate hydrolysis based fluorescence spectrophotometry
Listing of entries alongside the reported Activity.
Reply with just the number (in ×10⁻³ /s).

compound="CC(C)CS(=O)(=O)Oc1ccc(Oc2ccc(S(=O)(=O)CC3CS3)cc2)cc1 (stereo not drawn)" value=2
compound="CS(=O)(=O)Oc1ccc(Oc2ccc(S(=O)(=O)CC3CS3)cc2)cc1 (stereo not drawn)" value=0.1

Fill in the blank: the reported Activity of CCCS(=O)(=O)Oc1ccc(Oc2ccc(S(=O)(=O)CC3CS3)cc2)cc1 (stereo not drawn) is ____. 1.6

###

Listing of entries alongside the reported Activity.
# measurement_target: Matrilysin (Homo sapiens) (UniProt P09237)
# Sequence (P09237 whole entry, the tested form may be a part): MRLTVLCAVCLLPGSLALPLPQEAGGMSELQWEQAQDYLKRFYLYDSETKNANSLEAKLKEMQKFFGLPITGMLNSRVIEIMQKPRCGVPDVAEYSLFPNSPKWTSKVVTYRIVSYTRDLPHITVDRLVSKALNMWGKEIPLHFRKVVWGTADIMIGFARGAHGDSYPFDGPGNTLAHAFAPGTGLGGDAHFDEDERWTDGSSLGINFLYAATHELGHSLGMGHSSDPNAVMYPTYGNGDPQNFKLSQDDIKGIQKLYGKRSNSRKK
# assay_name: Inhibition of human recombinant MMP7 catalytic domain assessed as dissociation rate constant by substrate hydrolysis based fluorescence spectrophotometry
Reply with just the number (in ×10⁻³ /s).

Observe how each entry below is paired with its result.
molecule="CS(=O)(=O)Oc1ccc(S(=O)(=O)CC2CS2)cc1 (centres undefined)" property_label=Activity output_unit="×10⁻³ /s" value=0.5
molecule="CCCS(=O)(=O)Oc1ccc(S(=O)(=O)CC2CS2)cc1 (centres undefined)" property_label=Activity output_unit="×10⁻³ /s" value=0.8
molecule="CC(C)CS(=O)(=O)Oc1ccc(S(=O)(=O)CC2CS2)cc1 (centres undefined)" property_label=Activity output_unit="×10⁻³ /s" value=1.4

Now consider the entry below.
Fill in the blank: the reported Activity of CCS(=O)(=O)Oc1ccc(S(=O)(=O)CC2CS2)cc1 (centres undefined) is ____. 0.6
